measurement_protocol: log P (HPLC/MS data of the preparation examples)
assay_context: LC-MS, method [b]: pH 2.7 with 0.1% formic acid in water and acetonitrile, linear gradient 10% to 95% acetonitrile
Listed next: entries and their corresponding log p.

molecule	log p
Cn1ccnc1C(=NOCc1nccc(NC(=O)CCc2ccccc2)n1)c1ccccc1 [Example 64]	2.21^[b]
CCCCCOC(=O)Nc1nc(CON=C(c2ccccc2)c2ocnc2C)cs1 (single isomer, unassigned) [Example 322]	3.87^[b]
Cc1ccccc1C(=NOCc1cccc(NC(=O)C(C)(C)C)n1)c1ncnn1C [Example 25]	3.06^[b]
CCCCCOC(=O)Nc1ccnc(CON=C(c2ccccc2)c2cnnn2C)n1 [Example 87]	3.55^[b]
CC(C)CCOC(=O)Nc1cccc(CON=C(c2cccc(F)c2)c2nccn2C)n1 [Example 346]	2.82^[b]
CCCCOC(=O)Nc1cccc(CON=C(c2ccccc2)c2nc(C)cnc2C)n1 [Example 376]	4.29^[b]
Cn1cncc1C(=NOCc1csc(N)n1)c1ccccc1 [Example 111]	0.69^[b]
Cn1ncnc1C(=NOCc1csc(NC(=O)C(C)(C)C)n1)c1cccs1 [Example 401]	2.8^[b]
Cn1ncnc1C(=NOCc1csc(NC(=O)Cc2ccccc2)n1)c1cccs1 [Example 402]	2.82^[b]

----------
measurement_protocol: log P (HPLC/MS data of the preparation examples)
assay_context: LC-MS, method [b]: pH 2.7 with 0.1% formic acid in water and acetonitrile, linear gradient 10% to 95% acetonitrile
Listed next: entries and their corresponding log p.

molecule	log p
Cn1ncnc1C(=NOCc1csc(NC(=O)C(C)(C)C)n1)c1ccccc1	2.92^[b]
Cn1ccnc1C(=NOCc1nccc(NC(=O)C(C)(C)C)n1)c1ccccc1	1.77^[b]
CCCCCOC(=O)Nc1ccnc(CON=C(c2cccs2)c2ncnn2C)n1	3.31^[b]
CCCCCOC(=O)Nc1nc(CON=C(c2ccc(OC)c(Br)c2)c2ncc(C(F)(F)F)cc2Cl)cs1	5.59^[b]
Cc1ccc(C(=NOCc2cccc(N3C(=O)c4ccccc4C3=O)n2)c2ncnn2C)cc1	2.92^[b]
Cn1ccnc1C(=NOCc1cccc(N)n1)c1ccccc1	0.36^[b]
CCC(C)COC(=O)Nc1cccc(CON=C(c2cccc(F)c2)c2nccn2C)n1 (stereo not shown)	2.82^[b]
Cn1ncnc1C(=NOCc1cccc(NC(=O)CCc2ccccc2)n1)c1cccs1	3.17^[b]
Cc1cccc(C(=NOCc2cccc(NC(=O)C(C)(C)C)n2)c2ncnn2C)c1	3.31^[b]
Cn1ncnc1C(=NOCc1csc(N)n1)c1cccs1	0.92^[b]
COCC(=O)Nc1ccnc(CON=C(c2ccccc2)c2nccn2C)n1	1.2^[b]
C=CCC(=O)Nc1cccc(CON=C(c2ccccc2)c2ncnn2C)n1	2.51^[b]
Cn1ccnc1C(=NOCc1cccc(NC(=O)COc2ccccc2)n1)c1cccc(F)c1	2.63^[b]
Cn1c(C(=NOCc2nccc(NC(=O)C(C)(C)C)n2)c2ccccc2)cnc1C(=O)C(C)(C)C	4.84^[b]
Cc1cnc(C)c(C(=NOCc2cccc(N)n2)c2ccccc2)n1	1.31^[b]
CCCCCC(=O)Nc1cccc(CON=C(c2ccccc2)c2nc(C)cnc2C)n1	4.09^[b]
CCOC(=O)Nc1ccnc(CON=C(c2ccccc2)c2nccn2C)n1	1.47^[b]
CC(C)COC(=O)Nc1cccc(CON=C(c2ccccc2)c2nccn2C)n1	2.21^[b]
CCCC(=O)Nc1cccc(CON=C(c2ccccc2)c2nc(C)cnc2C)n1	3.21^[b]
Cn1cncc1C(=NOCc1csc(NC(=O)COc2ccccc2)n1)c1ccccc1	2.01^[b]
Cc1ccc(C(=NOCc2cccc(NC(=O)C(C)(C)C)n2)c2ncnn2C)cc1	3.31^[b]
Cn1nncc1C(=NOCc1nccc(NC(=O)C(C)(C)C)n1)c1ccccc1	2.77^[b]
COc1ccc(C(=NOCc2cccc(N)n2)c2ncc(C(F)(F)F)cc2Cl)cc1Br	2.54^[b]
CCCCC(=O)Nc1cccc(CON=C(c2ccccc2)c2nc(C)cnc2C)n1	3.65^[b]
COc1ccc(C(=NOCc2cccc(NC(=O)C(C)(C)C)n2)c2ncc(C(F)(F)F)cc2Cl)cc1Br	5.2^[b]
Cn1ncnc1C(=NOCc1nccc(N)n1)c1cccs1	0.47^[b]
CCCCCC(=O)Nc1nc(CON=C(c2ccccc2)c2cncn2C)cs1	2.08^[b]
CC(C)CC(=O)Nc1cccc(CON=C(c2ccccc2)c2cncn2C)n1	1.84^[b]
Cn1ncnc1C(=NOCc1ccc2ccccc2n1)c1ccccc1	2.51^[b]
Cc1cccc(C(=NOCc2cccc(NC(=O)C3CC3)n2)c2ncnn2C)c1	2.73^[b]
CCCCCC(=O)Nc1ccnc(CON=C(c2ccccc2)c2cnnn2C)n1	3.23^[b]

----------
measurement_protocol: log P (HPLC/MS data of the preparation examples)
assay_context: LC-MS, method [b]: pH 2.7 with 0.1% formic acid in water and acetonitrile, linear gradient 10% to 95% acetonitrile
observable: log p

structure	result
CCCCCC(=O)Nc1nc(CON=C(c2ccccc2)c2cnnn2C)cs1	3.44^[b]
CCCCS(=O)(=O)N(c1cccc(CON=C(c2ccccc2)c2ncnn2C)n1)S(=O)(=O)CCCC	2.73^[b]
Cn1ccnc1C(=NOCc1cccc(NC(=O)OCC(Cl)(Cl)Cl)n1)c1cccc(F)c1	2.73^[b]
CC(C)CC(=O)Nc1ccnc(CON=C(c2ccccc2)c2cnnn2C)n1	2.77^[b]
Cc1ncoc1C(=NOCc1cccc(N2C(=O)c3ccccc3C2=O)n1)c1ccccc1	3.09^[b]
CCCCCOC(=O)Nc1cccc(CON=C(c2ccccc2)c2cnnn2C)n1	2.46^[b]
COCCOCC(=O)Nc1ccnc(CON=C(c2ccccc2)c2nccn2C)n1	1.34^[b]
CCCCCCCCC(=O)Nc1cccc(CON=C(c2ccc(OC)c(Br)c2)c2ncc(C(F)(F)F)cc2Cl)n1	6.65^[b]
COC(=O)CCCC(=O)Nc1cccc(CON=C(c2ccc(C)cc2)c2ncnn2C)n1	2.68^[b]
Cn1ncnc1C(=NOCc1cccc(CNC(=O)C(C)(C)C)n1)c1ccccc1	2.28^[b]
COc1ccc(C(=NOCc2csc(N)n2)c2ncc(C(F)(F)F)cc2Cl)cc1Br	2.8^[b]

----------
measurement_protocol: log P (HPLC/MS data of the preparation examples)
assay_context: HPLC (LC-MS) method [b]: pH 2.7, 0.1% formic acid in water and acetonitrile, linear gradient 10% to 95% acetonitrile; EEC directive 79/831 Annex V.A8
Listed next: entries and their corresponding log p.

compound	log p
CCCCCOC(=O)Nc1cccc(CON=C(c2ncc(C(F)(F)F)cc2Cl)c2ncnn2C)n1	4.41^[b]
CCCCCCCCCC(=O)Nc1cccc(CON=C(c2cccs2)c2cncn2C)n1	2.98^[b]
CCCCC(=O)Nc1cccc(CON=C(c2ccsc2)c2cncn2C)n1	1.75^[b]
Cc1cccnc1C(=NOCc1csc(N)n1)c1cc(C(F)(F)F)ccn1	1.57^[b]
CCCCCOC(=O)Nc1nc(CON=C(c2cccs2)c2cncn2C)cs1 (single isomer, unassigned) [Example 459]	2.16^[b]
Cn1cncc1C(=NOCc1cccc(N2C(=O)c3ccccc3C2=O)n1)c1cccs1	1.66^[b]
Cn1cncc1C(=NOCc1cccc(NC(=O)C(C)(C)C)n1)c1ccsc1	1.7^[b]
CCCCCOC(=O)Nc1cccc(CON=C(c2ccsc2)c2cncn2C)n1	2.82^[b]
CC(C)C(=O)Nc1cccc(CON=C(c2cccs2)c2nccn2C)n1	1.65^[b]
CCC(C(=O)Nc1cccc(CON=C(c2cccs2)c2cncn2C)n1)c1ccccc1 (stereo not shown)	2.2^[b]

----------
measurement_protocol: log P (HPLC/MS data of the preparation examples)
assay_context: method [b]: LC-MS at pH 2.7, 0.1% formic acid in water / acetonitrile, linear gradient 10% to 95% acetonitrile

compound	log p
COc1ccccc1CC(=O)Nc1cccc(CON=C(c2cccc(F)c2)c2nccn2C)n1	2.66^[b]
CC(=O)OCCCCOC(=O)Nc1cccc(CON=C(c2ccccc2)c2nc(C(F)(F)F)nn2C)n1	4.11^[b]
Cc1nnsc1C(=NOCc1cccc(N)n1)c1ccccc1	1.63^[b]
Cn1nc(C(F)(F)F)nc1C(=NOCc1cccc(NC(=O)C2CCCC2)n1)c1ccccc1	4.41^[b]
Cn1ccnc1C(=NOCc1cccc(NC(=O)Cc2ccccc2Cl)n1)c1ccccc1	2.61^[b]
Cn1ccnc1C(=NOCc1cccc(NC(=O)Cc2cccs2)n1)c1ccccc1	2.23^[b]
Cc1nnsc1C(=NOCc1cccc(NC(=O)OCC(C)C)n1)c1ccccc1	4.65^[b]
Cn1cncc1C(=NOCc1cccc(NC(=O)COc2ccccc2)n1)c1ccccc1	2.04^[b]
Cn1ncnc1C(=NOCc1cccc(NC(=O)CCc2cccc(Cl)c2)n1)c1ccccc1	3.73^[b]
Cn1ncnc1C(=NOCc1cccc(NC(=O)Cc2ccccc2C(F)(F)F)n1)c1ccccc1	3.51^[b]
CCCCCOC(=O)Nc1cccc(CON=C(c2ccccc2)c2csc(C)n2)n1 [Example 187]	4.51^[b]
CCCCCOC(=O)Nc1cccc(CON=C(c2ccccc2)c2cnc(C)n2C)n1	3.13^[b]
Cn1nc(C(F)(F)F)nc1C(=NOCc1cccc(NC(=O)Cc2ccccc2)n1)c1ccccc1	4.24^[b]
CCCC(=O)Nc1cccc(CON=C(c2ccccc2)c2cncn2C)n1	1.6^[b]
CCc1ccc(C(=O)Nc2cccc(CON=C(c3ccccc3)c3ncnn3C)n2)cc1	3.73^[b]
Cn1ccnc1C(=NOCc1nccc(NC(=O)C(C(=O)Cc2ccccc2)c2ccccc2)n1)c1ccccc1 (centres unmarked)	2.59^[b]
Cn1ccnc1C(=NOCc1nccc(NC(=O)Cc2ccccc2)n1)c1ccccc1	2.01^[b]
Cc1nnsc1C(=NOCc1cccc(NC(=O)CCC2CCCCC2)n1)c1ccccc1	5.41^[b]
Cc1ncc(C(=NOCc2cccc(N3C(=O)c4ccccc4C3=O)n2)c2ccccc2)n1C	1.84^[b]
COc1ccc(CC(=O)Nc2cccc(CON=C(c3cccc(F)c3)c3nccn3C)n2)cc1	2.54^[b]
Cn1ccnc1C(=NOCc1cccc(N)n1)c1cccc(F)c1	0.54^[b]
Cn1c(C(=NOCc2nccc(N(C(=O)C3CC3)C(=O)C3CC3)n2)c2ccccc2)cnc1C(=O)C1CC1	3.73^[b]
Cc1nc(C(=NOCc2cccc(NC(=O)CC(C)C)n2)c2ccccc2)cs1 (single isomer, unassigned) [Example 190]	3.75^[b]
COc1ccccc1CC(=O)Nc1cccc(CON=C(c2ccccc2)c2ncnn2C)n1	3.17^[b]
Cn1ncnc1C(=NOCc1cccc(CNC(=O)Cc2ccccc2)n1)c1ccccc1	2.44^[b]
CC(C(=O)Nc1cccc(CON=C(c2cccc(F)c2)c2nccn2C)n1)c1ccccc1 (centres unmarked)	2.92^[b]
